Test system: Recombinant human Aurora B (amino acids 1-344) (Homo sapiens (Human))
Sequence (Q96GD4 whole entry, the tested form may be a part): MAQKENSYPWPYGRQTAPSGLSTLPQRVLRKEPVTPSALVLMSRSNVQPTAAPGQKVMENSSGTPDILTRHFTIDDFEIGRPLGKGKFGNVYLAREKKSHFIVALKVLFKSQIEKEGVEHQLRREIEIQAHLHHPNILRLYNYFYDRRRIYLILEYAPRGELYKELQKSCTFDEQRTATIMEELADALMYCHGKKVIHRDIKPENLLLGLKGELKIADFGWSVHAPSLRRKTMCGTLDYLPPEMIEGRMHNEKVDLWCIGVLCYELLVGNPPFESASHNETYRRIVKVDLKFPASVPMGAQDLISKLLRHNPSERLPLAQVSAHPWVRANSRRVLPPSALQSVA
Measurement notes: Aurora B kinase test (ADP Glo)
Type: biochemical
# note: boundary value 10000 maps to false (0); selectivity ratio IC50(AURB)/IC50(SYK) below it maps to true (1)

Is it true that selectivity ratio IC50(AURB)/IC50(SYK) reported for Cc1c2c(O[C@H](C)[C@H]3CNC(=O)C3)cc(-c3cnn(C4CCC(F)(F)C4)c3)cc2nn1C (stereo partly drawn) is less than 10000?
false (0)

Say whether its selectivity ratio IC50(AURB)/IC50(SYK) is strictly beneath 10000. Entry: C[C@@H](Oc1cc(-c2cnn(C3CC3)c2)cc2nn(C)c(F)c12)[C@H]1CNC(=O)C1
false (0)

State whether 10000 exceeds selectivity ratio IC50(AURB)/IC50(SYK) recorded for C[C@@H](Oc1cc(-c2cnn(CC3CC3)c2)cc2nn(C)c(F)c12)[C@H]1CNC(=O)C1 .
false (0)

Does Cc1cnn2cc(-c3cnn(C(C)(C)C)c3)nc(O[C@H](C)[C@H]3CNC(=O)C3)c12 [example 5.20 on page 506 of WO15017610, reference compound] have selectivity ratio IC50(AURB)/IC50(SYK) strictly under 10000?
true (1)

Item Cc1c2c(O[C@H](C)[C@H]3CNC(=O)C3)cc(-c3cnn(CC(C)C)c3)cc2nn1C : selectivity ratio IC50(AURB)/IC50(SYK) beneath 10000, strictly?
false (0)

---

System: human hepatocytes
Measurement notes: Human hepatocyte stability test
Format: in vitro ADME
Run parameters: human hepatocyte suspension, percent of hepatic blood flow
Reported property: stability in human hepatocytes (chapter 5.7) HEPhu (% Qh)
# number only, unit % Qh dropped from output

Quote stability in human hepatocytes (chapter 5.7) HEPhu reported for Cc1c2c(O[C@H](C)[C@H]3CNC(=O)C3)cc(-c3cnn(C4CCC4)c3)cc2nn1C [Example 21] please.
7

Respond only with stability in human hepatocytes (chapter 5.7) HEPhu recorded for C[C@@H](Oc1cc(-c2cnn(CC3CC3)c2)cc2nn(C)c(F)c12)[C@H]1CNC(=O)C1 [Example 6]
6

Give stability in human hepatocytes (chapter 5.7) HEPhu for the following compound: Cc1cnn2cc(-c3cnn(C(C)(C)C)c3)cc(O[C@H](C)[C@H]3CNC(=O)C3)c12 [example 6.09 on page 559 of WO15017610, reference compound]
17

Query stability in human hepatocytes (chapter 5.7) HEPhu for Cc1cnn2cc(-c3cnn(C(C)(C)C)c3)nc(O[C@H](C)[C@H]3CNC(=O)C3)c12 [example 5.20 on page 506 of WO15017610, reference compound]
31

Please indicate stability in human hepatocytes (chapter 5.7) HEPhu recorded for Cc1c2c(O[C@H](C)[C@H]3CNC(=O)C3)cc(-c3cnn(C4CCC(F)(F)C4)c3)cc2nn1C (stereo partly shown) [Example 22]
3

---

Assign pIC50 to each entry below.
Test system: Recombinant human SYK (amino acids 342-635), GST-SYK kinase fusion protein (Homo sapiens (Human))
Measurement notes: SYK kinase inhibition test (Kinase Glo luminescence)
Format: biochemical
Run parameters: read-out: SYK inhibition IC50-value (chapter 5.1)
Note: pIC50 values are expressed as the negative base-10 logarithm of concentration in M.

Let me know recorded pIC50 for C[C@@H](Oc1cc(-c2cnn(C3CCC(F)(F)C3)c2)cc2nn(C)c(F)c12)[C@H]1CNC(=O)C1 (stereo partly shown) , thanks.
8.89

Fill in pIC50 for record Cc1c2c(O[C@H](C)[C@H]3CNC(=O)C3)cc(-c3cnn(C4CC(C)(C)OC4(C)C)c3)cc2nn1C (stereo partly shown)
8.51

Recall and state the measured pIC50 for Cc1c2c(O[C@H](C)[C@H]3CNC(=O)C3)cc(-c3cnn(C4CC4)c3)cc2nn1C .
8.60

Look up and state reported pIC50 for C[C@@H](Oc1cc(-c2cnn(CCC(F)(F)F)c2)cc2nn(C)c(F)c12)[C@H]1CNC(=O)C1
8.54

Tell me its pIC50 given Cc1c2c(O[C@H](C)[C@H]3CNC(=O)C3)cc(-c3cnn(CC4CC4)c3)cc2nn1C as the entry.
8.85

Give the value of pIC50 reported for the following: C[C@@H](Oc1nc(-c2cnn(C(C)(C)C)c2)cc2ncn(C)c12)[C@H]1CNC(=O)C1 [example 3A.02, on page 196 of WO15017610, reference compound]
8.72

Give pIC50 for the following compound: Cc1c2c(O[C@H](C)[C@H]3CNC(=O)C3)cc(-c3cnn([C@@H]4CCOC(C)(C)C4)c3)cc2nn1C
8.96
